# target entity: DAPK1 (Homo sapiens)
# Construct: purchased ReactionBiology
# Sequence (P53355 whole entry): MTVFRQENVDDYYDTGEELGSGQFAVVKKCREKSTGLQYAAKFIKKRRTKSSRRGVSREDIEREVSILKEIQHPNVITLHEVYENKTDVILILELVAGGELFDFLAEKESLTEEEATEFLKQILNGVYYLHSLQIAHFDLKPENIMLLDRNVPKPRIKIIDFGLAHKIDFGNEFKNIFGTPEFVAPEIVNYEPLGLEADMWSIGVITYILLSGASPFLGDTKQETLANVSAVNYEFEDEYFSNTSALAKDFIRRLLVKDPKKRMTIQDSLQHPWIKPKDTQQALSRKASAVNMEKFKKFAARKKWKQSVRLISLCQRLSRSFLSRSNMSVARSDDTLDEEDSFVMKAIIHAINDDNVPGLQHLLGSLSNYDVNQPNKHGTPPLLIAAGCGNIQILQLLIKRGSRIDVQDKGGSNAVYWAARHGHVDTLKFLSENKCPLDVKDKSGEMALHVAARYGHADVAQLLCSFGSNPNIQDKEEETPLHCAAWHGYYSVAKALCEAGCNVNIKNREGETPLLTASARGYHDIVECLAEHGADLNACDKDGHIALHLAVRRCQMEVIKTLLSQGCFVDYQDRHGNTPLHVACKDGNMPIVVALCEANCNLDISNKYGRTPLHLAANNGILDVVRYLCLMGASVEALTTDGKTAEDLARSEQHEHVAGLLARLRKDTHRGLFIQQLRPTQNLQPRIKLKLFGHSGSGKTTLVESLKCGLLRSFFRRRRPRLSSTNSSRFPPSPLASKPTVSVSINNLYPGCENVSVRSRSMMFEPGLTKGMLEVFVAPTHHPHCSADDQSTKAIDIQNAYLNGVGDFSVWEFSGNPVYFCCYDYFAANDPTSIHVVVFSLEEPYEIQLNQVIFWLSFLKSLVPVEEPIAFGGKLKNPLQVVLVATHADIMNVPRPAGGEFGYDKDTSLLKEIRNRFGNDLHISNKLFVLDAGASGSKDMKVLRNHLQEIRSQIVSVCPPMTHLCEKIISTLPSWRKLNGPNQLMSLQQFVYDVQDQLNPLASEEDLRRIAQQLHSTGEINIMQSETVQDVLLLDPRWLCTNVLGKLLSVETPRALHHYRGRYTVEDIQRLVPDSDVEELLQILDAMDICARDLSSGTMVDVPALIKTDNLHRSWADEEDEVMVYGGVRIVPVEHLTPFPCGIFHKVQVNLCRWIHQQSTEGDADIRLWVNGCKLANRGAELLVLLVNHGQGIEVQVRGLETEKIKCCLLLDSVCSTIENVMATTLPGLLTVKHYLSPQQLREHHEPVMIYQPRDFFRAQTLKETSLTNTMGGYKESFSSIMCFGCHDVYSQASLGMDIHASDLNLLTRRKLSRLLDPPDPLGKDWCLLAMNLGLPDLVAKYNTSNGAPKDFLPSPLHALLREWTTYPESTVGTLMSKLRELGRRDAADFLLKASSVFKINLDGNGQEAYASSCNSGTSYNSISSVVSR
# protocol notes: Kinase activity test (ReactionBiology), % enzyme activity relative to DMSO
# Assay type: biochemical
# condition info: DAPK1; 1 uM; replicate Data 1
measurement name: % Enzyme Activity (relative to DMSO controls), Data 1 (%)

[
  {
    "compound": "CS(=O)(=O)c1ccc(C2=C(c3ccccc3)C(=O)OC2)cc1 [Rofecoxib]",
    "target entity": "DAPK1 (Homo sapiens)",
    "experimental result": 111.72
  },
  {
    "compound": "CC(C)C[C@H](NC(=O)[C@H](Cc1ccccc1)NC(=O)c1cnccn1)B(O)O [Bortezomib]",
    "target entity": "DAPK1 (Homo sapiens)",
    "experimental result": 95.51
  },
  {
    "compound": "Cc1ccc(Cl)c(Nc2ccccc2C(=O)O)c1Cl [Meclofenamate]",
    "target entity": "DAPK1 (Homo sapiens)",
    "experimental result": 121.09
  },
  {
    "compound": "Cc1ccnc2c1NC(=O)c1cccnc1N2C1CC1 [Nevirapine]",
    "target entity": "DAPK1 (Homo sapiens)",
    "experimental result": 101.89
  },
  {
    "compound": "C[C@]12CCC(=O)C=C1CC[C@@H]1[C@@H]2[C@@H](O)C[C@@]2(C)[C@H]1CC[C@]2(O)C(=O)CO [Hydrocortisone]",
    "target entity": "DAPK1 (Homo sapiens)",
    "experimental result": 116.14
  },
  {
    "compound": "CC(=O)Nc1ccc(O)cc1 [Acetaminophen]",
    "target entity": "DAPK1 (Homo sapiens)",
    "experimental result": 112.11
  },
  {
    "compound": "O=C1C(O)=C([C@H]2CC[C@H](c3ccc(Cl)cc3)CC2)C(=O)c2ccccc21 [Atovaquone]",
    "target entity": "DAPK1 (Homo sapiens)",
    "experimental result": 96.85
  },
  {
    "compound": "COC(=O)N[C@H](C(=O)N[C@@H](Cc1ccccc1)[C@@H](O)CN(Cc1ccc(-c2ccccn2)cc1)NC(=O)[C@@H](NC(=O)OC)C(C)(C)C)C(C)(C)C [Atazanavir]",
    "target entity": "DAPK1 (Homo sapiens)",
    "experimental result": 95.12
  },
  {
    "compound": "C[C@@H]1O[C@@H]1P(=O)(O)O [Fosfomycin]",
    "target entity": "DAPK1 (Homo sapiens)",
    "experimental result": 100.97
  },
  {
    "compound": "CN1[C@@H]2CC[C@H]1C[C@@H](OC(=O)c1c[nH]c3ccccc13)C2 [Tropisetron]",
    "target entity": "DAPK1 (Homo sapiens)",
    "experimental result": 103.12
  },
  {
    "compound": "CC(C)CN(C[C@@H](O)[C@H](Cc1ccccc1)NC(=O)O[C@H]1CO[C@H]2OCC[C@H]21)S(=O)(=O)c1ccc(N)cc1 [Darunavir]",
    "target entity": "DAPK1 (Homo sapiens)",
    "experimental result": 101.48
  },
  {
    "compound": "NC[C@H](O)c1ccc(O)c(O)c1 [Norepinephrine]",
    "target entity": "DAPK1 (Homo sapiens)",
    "experimental result": 101.72
  },
  {
    "compound": "OC(Cn1cncn1)(Cn1cncn1)c1ccc(F)cc1F [Fluconazole]",
    "target entity": "DAPK1 (Homo sapiens)",
    "experimental result": 103.85
  },
  {
    "compound": "C=C[C@H]1CN2CC[C@H]1C[C@@H]2[C@@H](O)c1ccnc2ccc(OC)cc12 [Quinidine]",
    "target entity": "DAPK1 (Homo sapiens)",
    "experimental result": 101.97
  },
  {
    "compound": "N[C@H]1C(O)O[C@H](CO)[C@@H](O)[C@@H]1O (stereo partly shown) [Glucosamine]",
    "target entity": "DAPK1 (Homo sapiens)",
    "experimental result": 102.25
  },
  {
    "compound": "Cn1c(=O)c2[nH]cnc2n(C)c1=O [Theophylline]",
    "target entity": "DAPK1 (Homo sapiens)",
    "experimental result": 109.64
  }
]
